# tested-system: human FGFR4 (Homo sapiens)
measured-property: IC50

// solved cases for IC50 follow
[[record]]
compound = "[2H]C([2H])([2H])n1ncc(NC(=O)C=C)c1-c1n[nH]c2c1CCC(c1c(F)c(OC)cc(OC)c1F)C2 (single isomer, unassigned) [Compound S16-P1]"
measured_property = "IC50"
reported_value = "< 10 nM"

[[record]]
compound = "C=CC(=O)Nc1cnn(C)c1-c1n[nH]c2c1CCC[C@@H](c1c(F)c(OC)cc(OC)c1F)C2 (single isomer, unassigned) [Compound S4-P1]"
measured_property = "IC50"
reported_value = "< 10 nM"

[[record]]
compound = "C=CC(=O)Nc1cn(C)nc1-c1n[nH]c2c1CCC[C@H](c1c(F)c(OC)cc(OC)c1F)C2 (single isomer, unassigned) [Compound S12-P1]"
measured_property = "IC50"
reported_value = "< 10 nM"

[[record]]
compound = "[2H]C([2H])([2H])Oc1cc(OC([2H])([2H])[2H])c(F)c(C2CCc3c(-c4c(NC(=O)C=C)cnn4C)n[nH]c3C2)c1F (single isomer, unassigned) [Compound S8-P2]"
measured_property = "IC50"
reported_value = "< 10 nM"


Data request: State its IC50: COc1cc(OC)c(F)c(C2CCc3c(-c4c(NC(C)=O)cnn4C)n[nH]c3C2)c1F (single isomer, unassigned) [Compound S19-P2]
Data returned: > 100 nM

* * *

We begin with a simple list: items and their reported IC50.
# tested-system: human FGFR4 (Homo sapiens, UniProt P22455)
# Sequence (P22455 460-802): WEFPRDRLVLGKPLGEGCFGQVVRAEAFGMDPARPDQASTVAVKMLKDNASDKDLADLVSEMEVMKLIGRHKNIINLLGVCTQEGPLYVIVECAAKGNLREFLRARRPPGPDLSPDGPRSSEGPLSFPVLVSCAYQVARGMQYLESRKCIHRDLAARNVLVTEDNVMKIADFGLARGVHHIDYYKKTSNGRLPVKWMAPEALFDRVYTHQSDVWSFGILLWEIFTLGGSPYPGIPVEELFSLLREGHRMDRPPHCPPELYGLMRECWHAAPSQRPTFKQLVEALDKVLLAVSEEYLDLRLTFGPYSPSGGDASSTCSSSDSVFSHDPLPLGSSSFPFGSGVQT

// solved cases for IC50 follow
[[record]]
compound = "C=CC(=O)N[C@@H]1COC[C@@H]1c1n[nH]c2c1CC[C@H](c1c(F)c(OC)cc(OC)c1F)C2 [Compound S13-P2]"
reported_value = "> 100 nM"

[[record]]
compound = "CCC(=O)Nc1cnn(C)c1-c1n[nH]c2c1CCC(c1c(F)c(OC)cc(OC)c1F)C2 (single isomer, unassigned) [Compound S20-P1]"
reported_value = "> 100 nM"

[[record]]
compound = "C=C(C)C(=O)Nc1cnn(C)c1-c1n[nH]c2c1CCC(c1c(Cl)c(OC)cc(OC)c1Cl)C2 (single isomer, unassigned) [Compound S2-P1]"
reported_value = "> 100 nM"

[[record]]
compound = "COC(=O)/C=C/C(=O)Nc1cnn(C)c1-c1n[nH]c2c1CC[C@H](c1c(F)c(OC)cc(OC)c1F)C2"
reported_value = "> 100 nM"

[[record]]
compound = "C=CC(=O)Nc1cnn(C(C)C)c1-c1n[nH]c2c1CCC(c1c(F)c(OC)cc(OC)c1F)C2 (single isomer, unassigned) [Compound S17-P1]"
reported_value = "10 to 100 nM"

[[record]]
compound = "C=CC(=O)Nc1cnn(C)c1-c1n[nH]c2c1COC(c1c(F)c(OC)cc(OC)c1F)C2 (single isomer, unassigned) [Compound S6-P2]"
reported_value = "10 to 100 nM"

[[record]]
compound = "C=CC(=O)Nc1cnn(C)c1-c1n[nH]c2c1CCC(c1c(F)c(OC)cc(OC)c1F)C2 (single isomer, unassigned) [Compound S1-P2]"
reported_value = "< 10 nM"

[[record]]
compound = "C=CC(=O)Nc1cn(C)nc1-c1n[nH]c2c1CCCC(c1cc(OC)cc(OC)c1F)C2 (single isomer, unassigned)"
reported_value = "< 10 nM"

[[record]]
compound = "C=CC(=O)Nc1c[nH]nc1-c1n[nH]c2c1CCC(c1cc(OC)cc(OC)c1F)C2 (single isomer, unassigned) [Compound S15-P3]"
reported_value = "10 to 100 nM"

[[record]]
compound = "C=CC(=O)NC1CCOCC1c1n[nH]c2c1CC[C@H](c1c(Cl)c(OC)cc(OC)c1Cl)C2 (single isomer, unassigned) [Compound S7-P2]"
reported_value = "> 100 nM"


Data request: Look up and report measured IC50 (human FGFR4 (Homo sapiens, UniProt P22455)) for the following compound: C=C(F)C(=O)Nc1cnn(C)c1-c1n[nH]c2c1CCC(c1c(F)c(OC)cc(OC)c1F)C2 (single isomer, unassigned) [Compound S21-P1]
Data returned: > 100 nM

* * *

# Test system: MAPK phosphorylation in Hep3B cells stimulated with FGF19
# test-name: FGFR4 pMAPK AlphaLISA SureFire Ultra assay
# Type: cell-based
# test-settings: Homo sapiens, Hep3B, serum-starved, compound 1 hour, FGF19 100 ng/ml for 4 hours, read-out: Potency (IC50), FGFR4 pMAPK AlphaLISA
measured-property: IC50

// solved cases for IC50 follow
[[record]]
compound = "C=CC(=O)Nc1cnn(C)c1-c1n[nH]c2c1COC(c1c(F)c(OC)cc(OC)c1F)C2 (single isomer, unassigned) [Compound S6-P2]"
tested_system = "MAPK phosphorylation in Hep3B cells stimulated with FGF19"
measured_property = "IC50"
reported_value = "10 to 100 nM"

[[record]]
compound = "C=CC(=O)Nc1c[nH]nc1-c1n[nH]c2c1CCC(c1cc(OC)cc(OC)c1F)C2 (single isomer, unassigned)"
tested_system = "MAPK phosphorylation in Hep3B cells stimulated with FGF19"
measured_property = "IC50"
reported_value = "< 10 nM"

[[record]]
compound = "C=CC(=O)Nc1cnn(C)c1-c1n[nH]c2c1CCC(c1c(F)c(OC)cc(OC)c1F)C2 (single isomer, unassigned) [Compound S1-P1]"
tested_system = "MAPK phosphorylation in Hep3B cells stimulated with FGF19"
measured_property = "IC50"
reported_value = "< 10 nM"


Data request: State its IC50: [2H]C([2H])([2H])Oc1cc(OC([2H])([2H])[2H])c(F)c(C2CCc3c(-c4c(NC(=O)C=C)cnn4C)n[nH]c3C2)c1F (single isomer, unassigned) [Compound S8-P1]
Data returned: < 10 nM

Data request: State its IC50: [2H]C([2H])([2H])Oc1cc(OC([2H])([2H])[2H])c(F)c(C2CCc3c(-c4c(NC(=O)C=C)cnn4C)n[nH]c3C2)c1 (single isomer, unassigned)
Data returned: 10 to 100 nM

Data request: State its IC50: C=CC(=O)Nc1ncn(C)c1-c1n[nH]c2c1CCC(c1c(F)c(OC)cc(OC)c1F)C2 (single isomer, unassigned) [Compound S3-P2]
Data returned: > 100 nM

* * *

# tested-system: human FGFR4 (Homo sapiens)
pIC50: −log10 of the molar value.
We begin with a simple list: items and their reported pIC50.

// solved cases for pIC50 follow
[[record]]
compound = "C=CC(=O)N[C@H]1COC[C@H]1c1n[nH]c2c1CC[C@@H](c1c(Cl)c(OC)cc(OC)c1Cl)C2 [Compound S10-P1]"
reported_value = "< 7.00"

[[record]]
compound = "CCC(=O)Nc1cnn(C)c1-c1n[nH]c2c1CCC(c1c(F)c(OC)cc(OC)c1F)C2 (single isomer, unassigned) [Compound S20-P2]"
reported_value = "< 7.00"

[[record]]
compound = "C=CC(=O)Nc1c[nH]nc1-c1n[nH]c2c1CCC(c1c(F)c(OC)cc(OC)c1F)C2 (single isomer, unassigned) [Compound S15-P1]"
reported_value = "> 8.00"

[[record]]
compound = "C=CC(=O)Nc1cnn(C(C)C)c1-c1n[nH]c2c1CCC(c1c(F)c(OC)cc(OC)c1F)C2 (single isomer, unassigned) [Compound S17-P2]"
reported_value = "7.00 to 8.00"


In the following, a different compound is considered.
Data request: State its pIC50: C=CC(=O)Nc1cnn(C)c1-c1n[nH]c2c1CCC(c1c(F)c(OC)cc(OC)c1F)C2 (single isomer, unassigned) [Compound S1-P1]
Data returned: > 8.00

Where do the numbers come from? From patent US11976058B2.
